Experiment: reduced mouse 2C T cell binding to pMHC/ICAM-1 vesicles – MLPCN validation set, flow cytometry, LFA-1/ICAM-1 modulator project, pilot screen (AID 2523);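 also: mean PE anti-B7-1 fluorescence of CD8+ cells relative to row control; 100% = QL9-loaded vesicles with DMSO vehicle in the same plate row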
Details: 2C mouse CD8+ T cells, at 7 µM, hits give low values
observedProperty: vesicle binding response (%)
Your answer is read as %, so omit the unit and give the number.

INSERT INTO assay_data (compound, observedproperty, observed) VALUES
  ('O=C(Nc1ccc(F)c([N+](=O)[O-])c1)c1ccc2c(c1)OCCO2', 'vesicle binding response', 5830),
  ('COc1cc(COc2ccc3c(C)c(Cc4ccccc4)c(=O)oc3c2)cc(OC)c1OC', 'vesicle binding response', 38.9),
  ('COc1ccc(C(=O)NCCC2=CCCCC2)cc1[N+](=O)[O-]', 'vesicle binding response', 194),
  ('C[N+](C)(C)CCOP(=O)([O-])OC[C@H](O)CO', 'vesicle binding response', 133);

Tell me measured vesicle binding response for Cn1c(SCC(=O)c2ccccc2)nnc1-c1ccncc1 please. 157

# return recorded vesicle binding response for entry O=c1cnn([C@@H]2O[C@H](CO)[C@@H](O)[C@H]2O)c(=O)[nH]1 127

Note vesicle binding response for the compound shown: O=C(NC1CC1)C1CCN(C2CCN(C(=O)Cc3ccc(F)cc3)CC2)CC1 48

Identify vesicle binding response associated with the compound O=C1CN(O)C=C2N=c3ccccc3=C2N1c1ccc([N+](=O)[O-])cc1 124

Please list vesicle binding response recorded for the compound CC(C)c1ccc(/C=C/C(=O)O)cc1 218

Please report vesicle binding response for the following compound: N#C/C(=C\c1ccc(O)c(O)c1)C(=O)NCCCc1ccccc1 206

Please give measured vesicle binding response of the following entry: Cc1[nH]nc(-c2ccc(O)cc2O)c1Oc1ccccc1 53.1

State its vesicle binding response for this compound: C[C@]12CC[C@@H]3c4ccc(O)cc4CC[C@H]3[C@@H]1CCC2=O 34.4

Identify measured vesicle binding response associated with O=C1C(Cc2c[nH]c3ccccc23)NC(=S)N1Cc1ccccc1 (configuration not stated) 132

Read off the recorded vesicle binding response for NC(N)=N/N=C/c1ccc(OS(=O)(=O)c2ccccc2)cc1 141

Kindly indicate its recorded vesicle binding response. Item: CC1=CC(=O)c2ccccc2C1=O 105

Provide one value: measured vesicle binding response of O=C1C(=O)N2C(=C1C(=O)N1CCCCCC1)c1ccccc1CC21CCCC1 201

Give me measured vesicle binding response, please, for this compound: OCCN1CCN(CCCN2c3ccccc3Sc3ccc(C(F)(F)F)cc32)CC1 176

Note vesicle binding response for the compound shown: O=C(NC(=S)Nc1ccc2c(c1)OCCO2)c1ccccc1F 2360
